procedure details: Cell Viability - LYMP2-005 (AID 967);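 also: cells exposed to compound for 24 h at 37 °C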
applied conditions: LYMP2-005 lymphoblastoid cell viability; series mostly up to 92.2 µM
Inconclusive results are not listed. The source made the active and inactive calls. Calls follow the shape of the dose curve; as a rule, active = well fitted cell-killing curve with a large enough effect; inconclusive = small, poorly fitted or top-dose-only effect, or effect the other way; inactive = no such curve, though single readings can be large or run the other way.
attribute measured: outcome

# count of solved cases: 8
CCCN(CCC)C(=O)SCC ... inactive
O=C(O)CC(C(=O)O)C(CC(=O)O)C(=O)O (centres undefined) ... inactive
CCO[Si](CCCN)(OCC)OCC ... inactive
Cc1ccc([N+](=O)[O-])c(C)c1 ... inactive
CCC(C)c1ccccc1O (centres undefined) ... inactive
c1ccc2scnc2c1 ... inactive
c1ccccc1 ... inactive
CCCCCCCCCCCCCC(=O)O ... inactive

As a next step, examine the compound that follows.
query: Answer with reported outcome of COCC(=O)O
result: inactive
